# measurement-notes: Basic pKa measured spectrophotometrically
# Assay type: physicochemical
# details: 20% aqueous dimethylformamide, spectrophotometric; read-out: pK (basic pKa)
Catalogue of pKa values
Give the figure only, with no unit attached.

Study these solved cases before continuing.
[[record]]
molecule = "COc1cc(NS(C)(=O)=O)ccc1Nc1c2ccc(Cl)cc2nc2c(C(=O)NCC(N)=O)cccc12 [Compound 3]"
observed_value = 5.71

[[record]]
molecule = "COc1cc(NS(C)(=O)=O)ccc1Nc1c2ccc(C)cc2nc2c(C(=O)NCC(N)=O)cccc12 [Compound 2]"
observed_value = 6.58

[[record]]
molecule = "CNC(=O)c1ccc2c(Nc3ccc(NS(C)(=O)=O)cc3OC)c3cccc(C)c3nc2c1 [Compound 4]"
observed_value = 6.64


Requested read-out: pKa. Entry: CNC(=O)c1cccc2c(Nc3ccc(NS(C)(=O)=O)cc3OC)c3ccc(C)cc3nc12 [Compound 1] 6.6

Values from patent US4472582A
